Item-by-item account of pIC50
target: HSD17B13 (Homo sapiens (Human), UniProt Q7Z5P4); assay: HSD17B13 enzymatic inhibition assay (150 nM or 50 nM HSD17B13); type: biochemical; conditions: 150 nM HSD17B13; read-out: Inhibition of 150 nM of HSD17B13 IC50
Sequence (Q7Z5P4 other isoform, or with tags, fused parts or gaps): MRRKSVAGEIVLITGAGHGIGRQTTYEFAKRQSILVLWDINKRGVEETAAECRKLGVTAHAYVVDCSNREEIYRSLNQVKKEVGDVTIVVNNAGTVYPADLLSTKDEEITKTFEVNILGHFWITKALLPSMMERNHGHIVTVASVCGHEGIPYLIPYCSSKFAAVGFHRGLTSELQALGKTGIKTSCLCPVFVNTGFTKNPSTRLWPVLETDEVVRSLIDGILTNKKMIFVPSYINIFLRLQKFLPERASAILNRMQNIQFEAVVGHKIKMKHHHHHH
pIC50: −log10 of the molar value.
readout_name: pIC50

>>> recorded_result("O=C(NC(c1ccccc1)c1ccccc1O)c1ccc(C(F)(F)F)[nH]c1=O (stereo not drawn) [Compound 35]")
5.56
>>> recorded_result("Cc1cccc(C(NC(=O)c2ccc(C(F)(F)F)[nH]c2=O)c2ccccc2)c1 (stereo not drawn) [Compound 20]")
5.68
>>> recorded_result("Cc1ccc(C(NC(=O)c2ccc(C(F)(F)F)[nH]c2=O)c2ccccc2)cc1 (stereo not drawn) [Compound 27]")
6.33
>>> recorded_result("O=C(NC(c1ccccc1)c1cccc(Cl)c1)c1ccc(C(F)(F)F)[nH]c1=O (stereo not drawn) [Compound 6]")
5.34
>>> recorded_result("Cc1ccc(C(NC(=O)c2ccc(C(F)(F)F)[nH]c2=O)c2ccccc2)cc1C (stereo not drawn) [Compound 2A]")
5.80
>>> recorded_result("O=C(NC(c1ccccc1)c1ccc2c(c1)OCO2)c1ccc(C(F)(F)F)[nH]c1=O (stereo not drawn) [Compound 3]")
5.88
>>> recorded_result("COc1ccccc1C(NC(=O)c1ccc(C(F)(F)F)[nH]c1=O)c1ccccc1 (stereo not drawn) [Compound 8]")
5.49
>>> recorded_result("COc1cccc(C(NC(=O)c2ccc(C(F)(F)F)[nH]c2=O)c2ccccc2)c1 (stereo not drawn) [Compound 4]")
5.33

---

// pIC50 lookup, one value per entry
target: HSD17B13 (Homo sapiens (Human), UniProt Q7Z5P4); assay: HSD17B13 enzymatic inhibition assay (150 nM or 50 nM HSD17B13); format: biochemical; conditions: 50 nM HSD17B13; read-out: Inhibition of 50 nM of HSD17B13 IC50
pIC50: −log10 of the molar value.
readout_name: pIC50

>>> recorded_result("Cc1ccc(C(NC(=O)c2c(C)cc(C(F)(F)F)[nH]c2=O)c2ccccc2)cc1 (centres unmarked)")
5.76
>>> recorded_result("CC[C@H](C[C@@H](NC(=O)c1ccc(C(F)(F)F)[nH]c1=O)c1ccc(C)cc1)OC")
6.23
>>> recorded_result("Cc1ccc2c(c1)NCCC2NC(=O)c1ccc(C(F)(F)F)[nH]c1=O (centres unmarked)")
6.25
>>> recorded_result("COc1ccc(C(NC(=O)c2c(C)cc(C(F)(F)F)[nH]c2=O)c2ccccc2)cc1 (centres unmarked)")
5.87
>>> recorded_result("CCc1cc(C(=O)NC2c3ccc(Cl)cc3Oc3cccc(Cl)c32)c(=O)[nH]c1C(F)(F)F (centres unmarked)")
6.11
>>> recorded_result("CCN1Cc2cc(C)ccc2C(NC(=O)c2ccc(C(F)(F)F)[nH]c2=O)C1=O (centres unmarked)")
5.76
>>> recorded_result("CCc1ccc2c(c1)C(NC(=O)c1ccc(C(F)(F)F)[nH]c1=O)c1ccccc1S2 (centres unmarked)")
6.82

---

test: Microsome stability assay, mouse liver microsomes; type: in vitro ADME; details: 60 min; 1 μM compound, 0.5 mg/mL microsomal protein
readout_name: Microsome Stability Mouse liver microsomes % Remaining @60 min (%)

>>> recorded_result("Cc1ccc2c(c1)Oc1cc(C)ccc1C2NC(=O)c1cc(OC2CCOCC2)c(C(F)(F)F)[nH]c1=O")
81.70
>>> recorded_result("Cc1ccc2c(c1)Sc1cc(C)ccc1C2NC(=O)c1cc(-c2ccccc2)c(C(F)(F)F)[nH]c1=O")
70.90
>>> recorded_result("CCCC1=Cc2cc(C)ccc2C1NC(=O)c1ccc(C(F)(F)F)[nH]c1=O (centres unmarked)")
54.30
>>> recorded_result("CCC[C@H]1Oc2ccc(C)cc2[C@@H]1NC(=O)c1ccc(C(F)(F)F)[nH]c1=O")
28.90
>>> recorded_result("CCC1CCc2cc(C)ccc2C1NC(=O)c1ccc(C(F)(F)F)[nH]c1=O (centres unmarked)")
25.30
>>> recorded_result("Cc1ccc2c(c1)[C@@H](O)CC[C@H]2NC(=O)c1ccc(C(F)(F)F)[nH]c1=O")
96.90
>>> recorded_result("COC1Cc2cc(C)ccc2C1NC(=O)c1ccc(C(F)(F)F)[nH]c1=O (centres unmarked)")
83.70
>>> recorded_result("CCC1CCc2cc(Cl)ccc2C1NC(=O)c1ccc(C(F)(F)F)[nH]c1=O (centres unmarked)")
36.10
>>> recorded_result("Cc1ccc2c(c1)Oc1cc(Cl)ccc1C2NC(=O)c1ccc(C(F)(F)F)[nH]c1=O (centres unmarked)")
97.40
>>> recorded_result("COc1ccc2c(c1)Oc1cc(OC)ccc1C2NC(=O)c1ccc(C(F)F)[nH]c1=O")
39
>>> recorded_result("COc1ccc2c(c1)Sc1ccccc1C2NC(=O)c1ccc(C(F)F)[nH]c1=O (centres unmarked)")
13.10
>>> recorded_result("CCC1Cc2cc(C)ccc2C(NC(=O)c2ccc(C(F)(F)F)[nH]c2=O)C1 (centres unmarked)")
24.60
>>> recorded_result("Cc1ccc2c(c1)CCC(C)C2NC(=O)c1ccc(C(F)(F)F)[nH]c1=O (centres unmarked)")
33.80
>>> recorded_result("Cc1ccc(C(CC2CCC2)NC(=O)c2ccc(C(F)(F)F)[nH]c2=O)cc1 (centres unmarked)")
65
>>> recorded_result("Cc1ccc2c(c1)Sc1cc(C)ccc1C2NC(=O)c1cc(-c2ccccn2)c(C(F)(F)F)[nH]c1=O")
96.20
>>> recorded_result("CCC1Cc2cc(OC)ccc2C1NC(=O)c1ccc(C(F)(F)F)[nH]c1=O (centres unmarked)")
69
>>> recorded_result("O=C(NC1c2ccc(Cl)cc2Oc2cccc(Cl)c21)c1ccc(C(F)(F)F)[nH]c1=O (centres unmarked)")
73.50

---

target: HSD17B13 (Homo sapiens (Human), UniProt Q7Z5P4); experiment: HSD17B13 enzymatic inhibition assay (150 nM or 50 nM HSD17B13); format: biochemical; conditions: 50 nM HSD17B13; read-out: Inhibition of 50 nM of HSD17B13 IC50
// returns Not satisfied unless IC50 is strictly below 1000 nM, in which case Satisfied

>>> assigned_category("COc1ccc2c(c1)Oc1cccc(OC)c1C2NC(=O)c1ccc(C(F)(F)F)[nH]c1=O (stereo not shown) [Compound 57]")
"Satisfied"
>>> assigned_category("O=C(Nc1ccc(C(NC(=O)c2ccc(C(F)(F)F)[nH]c2=O)c2ccccc2)cc1)c1ccccc1 (stereo not shown) [Compound 75]")
"Not satisfied"
>>> assigned_category("O=C(NC1CCCc2c(CO)cccc21)c1ccc(C(F)(F)F)[nH]c1=O (stereo not shown) [Compound 345]")
"Not satisfied"
>>> assigned_category("Cc1ccc2c(c1)Sc1ccccc1C2NC(=O)c1ccc(C(F)F)[nH]c1=O (stereo not shown) [Compound 275]")
"Satisfied"
>>> assigned_category("Cc1ccc2c(c1)SC(C)CC2NC(=O)c1ccc(C(F)(F)F)[nH]c1=O (stereo not shown) [Compound 385]")
"Satisfied"
>>> assigned_category("CC1CCC(C(NC(=O)c2ccc(C(F)(F)F)[nH]c2=O)c2ccccc2)CC1 (stereo not shown) [Compound 399]")
"Satisfied"
>>> assigned_category("CCc1cccc(C(NC(=O)c2ccc(C(F)(F)F)[nH]c2=O)c2ccccc2S(C)(=O)=O)c1 (stereo not shown) [Compound 456]")
"Not satisfied"
>>> assigned_category("CCCc1ccc(C(NC(=O)c2ccc(C(F)(F)F)[nH]c2=O)c2ccccc2)cc1 (stereo not shown) [Compound 36]")
"Satisfied"
>>> assigned_category("CCc1cc(C(F)(F)F)[nH]c(=O)c1C(=O)NC1c2ccc(C)cc2Oc2cccc(C)c21 (stereo not shown) [Compound 204]")
"Not satisfied"
>>> assigned_category("Cc1ccc2c(c1)OCCC2NC(=O)c1ccc(C(F)(F)F)[nH]c1=O (stereo not shown) [Compound 441]")
"Not satisfied"
>>> assigned_category("CCCC1=Cc2cc(C)ccc2C1NC(=O)c1ccc(C(F)(F)F)[nH]c1=O (stereo not shown) [Compound 341]")
"Satisfied"
>>> assigned_category("CCC(NC(=O)c1ccc(C(F)(F)F)[nH]c1=O)c1ccc(Cl)cc1 (stereo not shown) [Compound 22A]")
"Not satisfied"
>>> assigned_category("Cc1ccc2c(c1)S(=O)(=O)c1cc(C)ccc1C2NC(=O)c1cc(N2CCNCC2)c(C(F)(F)F)[nH]c1=O [Compound 425]")
"Satisfied"
>>> assigned_category("CCc1cc(C(F)(F)F)[nH]c(=O)c1C(=O)NC1c2ccc(C)cc2Oc2cc(C)ccc21 [Compound 201]")
"Satisfied"

---

List of microsomal CLint at 1 h, 1 µM values.
test: Microsome stability assay, mouse liver microsomes; format: in vitro ADME; conditions: mouse, mouse liver microsomes, pooled; 1 μM compound, 0.5 mg/mL microsomal protein, NADPH, 37° C.; read-out: Microsome Stability Mouse liver microsomes Cl
readout_name: microsomal CLint at 1 h, 1 µM (µL/min/mg)

>>> recorded_result("O=C(NC(c1ccccc1)c1ccccc1Cl)c1ccc(C(F)(F)F)[nH]c1=O (stereo not shown) [Compound 9]")
59.6
>>> recorded_result("CCCC1Cc2cc(C)ccc2C(NC(=O)c2ccc(C(F)(F)F)[nH]c2=O)C1 (stereo not shown) [Compound 387]")
52
>>> recorded_result("CCCC1CCc2cc(OC)ccc2C1NC(=O)c1ccc(C(F)(F)F)[nH]c1=O (stereo not shown) [Compound 289]")
47
>>> recorded_result("Cc1ccc2c(c1)CCCC2NC(=O)c1ccc(C(F)(F)F)[nH]c1=O (stereo not shown) [Compound 235]")
23.6
